Molecular target: T1, Recombinant human tissue kallikrein 1 (KLK1), wild type (human, UniProt P06870 25-262)
T1 construct: tissue kallikrein 1 (KLK1), human, residues 25-262; Vector pE-SUMO3; also called kallikrein-related peptidase 1
Assay: kinetics of protease inhibition (discontinuous assay); pseudo-first-order; 10 nM protease with 100-500 nM kallistatin variant, PBS, 0.1% PEG 8000, 22 ± 1 °C; apparent second-order rate constant kapp from kobs; k2 = kapp × SI
Conditions: both partners purified
property label: k2 (kapp × SI, second-order rate constant) (M⁻¹ s⁻¹)
Give just the number in M⁻¹ s⁻¹; leave the unit off.

binder	test value
rKAL-312/313D (natural protein, human, UniProt P29622 45-427, looked up, kallistatin (SERPINA4), human, residues 45-427; double mutant of K312 and K313 to Asp; also called rKAL-K312/313D; source: E. coli BL21 (DE3), purified (HisTrap FF crude, SENP2 digestion, HiTrap SP)) GSPSLKIAPANADFAFRFYYLIASETPGKNIFFSPLSISAAYAMLSLGACSHSRSQILEGLGFNLTELSESDVHRGFQHLLHTLNLPGHGLETRVGSALFLSHNLKFLAKFLNDTMAVYEAKLFHTNFYDTVGTIQLINDHVKKETRGKIVDLVSELKKDVLMVLVNYIYFKALWEKPFISSRTTPKDFYVDENTTVRVPMMLQDQEHHWYLHDRYLPCSVLRMDYKGDATVFFILPNQGKMREIEEVLTPEMLMRWNNLLRKRNFYDDLELHLPKFSISGSYVLDQILPRLGFTDLFSKWADLSGITKQQKLEASKSFHKATLDVDEAGTEAAAATSFAIKFFSAQTNRHILRFNRPFLVVIFSTSTQSVLFLGKVVDPTKP	1500

Now for the binder whose k2 (kapp × SI, second-order rate constant) we want.
Ask: Value lookup for k2 (kapp × SI, second-order rate constant); key = Recombinant human kallistatin (rKAL), wild type (natural protein, UniProt P29622 45-427, looked up, kallistatin (SERPINA4), human, residues 45-427; Vector pE-SUMO3; purified on a HisTrap column, so the SUMO3 fusion probably carries a His tag that leaves with SUMO3; During storage or crystallisation part of the protein is cleaved between F387 and F388 (P2-P1) by an unknown protease; the crystal structures hold this cleaved form; also called rKAL-WT; SERPINA4; source: E. coli BL21 (DE3), purified …) GSPSLKIAPANADFAFRFYYLIASETPGKNIFFSPLSISAAYAMLSLGACSHSRSQILEGLGFNLTELSESDVHRGFQHLLHTLNLPGHGLETRVGSALFLSHNLKFLAKFLNDTMAVYEAKLFHTNFYDTVGTIQLINDHVKKETRGKIVDLVSELKKDVLMVLVNYIYFKALWEKPFISSRTTPKDFYVDENTTVRVPMMLQDQEHHWYLHDRYLPCSVLRMDYKGDATVFFILPNQGKMREIEEVLTPEMLMRWNNLLRKRNFYKKLELHLPKFSISGSYVLDQILPRLGFTDLFSKWADLSGITKQQKLEASKSFHKATLDVDEAGTEAAAATSFAIKFFSAQTNRHILRFNRPFLVVIFSTSTQSVLFLGKVVDPTKP
Reply: 3400
